Target Or System: KOR (Homo sapiens (Human))
Experiment Notes: Competition binding assay at KOR ([3H]DPN, CHO cell membranes)
pKi: −log10 of the molar value.

{"Compound": "Cl.O=C(N[C@@H]1CC[C@@]2(O)[C@H]3Cc4ccc(O)c5c4[C@@]2(CCN3CC2CC2)[C@H]1O5)c1cc2ccccc2[nH]1 [Compound 10]", "Target Or System": "KOR (Homo sapiens (Human))", "pKi": 9.75}
{"Compound": "O=C(N[C@@H]1CC[C@@]2(O)[C@H]3Cc4ccc(O)c5c4[C@@]2(CCN3CC2CC2)[C@H]1O5)c1ccc2cc[nH]c2c1 [Compound 14]", "Target Or System": "KOR (Homo sapiens (Human))", "pKi": 9.78}
{"Compound": "Cl.O=C(N[C@@H]1CC[C@@]2(O)[C@H]3Cc4ccc(O)c5c4[C@@]2(CCN3CC2CC2)[C@H]1O5)c1cccc2[nH]ccc12 [Compound 12]", "Target Or System": "KOR (Homo sapiens (Human))", "pKi": 8.71}

----------
Target Or System: MOR (Mus musculus)
Sequence (P42866 whole entry, looked up): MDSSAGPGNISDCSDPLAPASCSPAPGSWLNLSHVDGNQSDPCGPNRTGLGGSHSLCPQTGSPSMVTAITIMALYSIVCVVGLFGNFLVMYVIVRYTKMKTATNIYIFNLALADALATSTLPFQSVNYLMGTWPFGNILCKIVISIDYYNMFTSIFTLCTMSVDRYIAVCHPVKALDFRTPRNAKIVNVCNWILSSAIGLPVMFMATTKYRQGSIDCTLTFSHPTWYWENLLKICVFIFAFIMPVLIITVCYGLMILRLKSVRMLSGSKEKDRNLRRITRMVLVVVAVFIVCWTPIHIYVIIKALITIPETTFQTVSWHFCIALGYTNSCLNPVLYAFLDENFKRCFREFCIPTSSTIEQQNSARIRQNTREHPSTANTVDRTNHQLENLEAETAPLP
Assay type: biochemical
Test Settings: relative to 3 μM DAMGO at MOR
Experimental: The [^35S]GTPγS functional assay was used to determine whether the synthesized compounds are agonists. The agonist's activity of the compounds was measured relative to 3 μM DAMGO at MOR. […] Thus, [^35S]GTPγS replaces endogenous GTP and since the γ-thiophosphate bond is resistant to hydrolysis by GTPase, [^35S]GTPγS labelled Gα subunits accumulate and can be quantified by measuring the amount of incorporated [^35S]. […]

{"Structure Smiles String": "Cl.O=C(N[C@H]1CC[C@@]2(O)[C@H]3Cc4ccc(O)c5c4[C@@]2(CCN3CC2CC2)[C@H]1O5)c1cccc2cc[nH]c12", "Emax(% DAMGO) ± SEM": 20.95}
{"Structure Smiles String": "Cl.O=C(CCc1c[nH]c2ccccc12)N[C@@H]1CC[C@@]2(O)[C@H]3Cc4ccc(O)c5c4[C@@]2(CCN3CC2CC2)[C@H]1O5", "Emax(% DAMGO) ± SEM": 40.43}
{"Structure Smiles String": "Cl.O=C(Cc1c[nH]c2ccccc12)N[C@H]1CC[C@@]2(O)[C@H]3Cc4ccc(O)c5c4[C@@]2(CCN3CC2CC2)[C@H]1O5", "Emax(% DAMGO) ± SEM": 33.88}

----------
Target Or System: DOR (Homo sapiens (Human), UniProt P41143)
Sequence (P41143 whole entry, looked up): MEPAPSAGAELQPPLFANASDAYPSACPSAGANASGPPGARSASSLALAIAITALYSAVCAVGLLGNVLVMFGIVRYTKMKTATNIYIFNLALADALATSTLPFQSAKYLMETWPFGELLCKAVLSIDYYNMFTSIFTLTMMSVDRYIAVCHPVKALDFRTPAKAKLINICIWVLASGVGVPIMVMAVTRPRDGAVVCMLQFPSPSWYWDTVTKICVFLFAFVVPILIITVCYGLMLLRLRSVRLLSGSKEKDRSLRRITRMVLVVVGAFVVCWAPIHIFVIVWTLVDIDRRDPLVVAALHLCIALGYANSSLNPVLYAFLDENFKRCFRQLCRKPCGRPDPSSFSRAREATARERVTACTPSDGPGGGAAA
Experiment Notes: Competition binding assay at DOR ([3H]DPN, CHO cell membranes)
Description: Chinese hamster ovary (CHO) cells expressing MOR, KOR and DOR were cultured for use in this assay. The culture media used for MOR CHO cells contained 500 mL DMEM/F12 media, 10% FBS, 1% penicillin/streptomycin, and 2.75 mL G418. […] The competition binding assay was conducted to determine the affinity and selectivity of the synthesized compounds to MOR over KOR and DOR. The Kd and Bmax values for [^3H]NLX at MOR and [^3H]DPN at KOR had been determined previously. […]
pKi: −log10 of the molar value.
Entry flag: Y if pKi reaches 8; N if it does not.

{"Structure Smiles String": "Cl.O=C(N[C@@H]1CC[C@@]2(O)[C@H]3Cc4ccc(O)c5c4[C@@]2(CCN3CC2CC2)[C@H]1O5)c1cccc2cc[nH]c12", "Category": "N"}
{"Structure Smiles String": "Cl.O=C(N[C@@H]1CC[C@@]2(O)[C@H]3Cc4ccc(O)c5c4[C@@]2(CCN3CC2CC2)[C@H]1O5)c1cc2ccccc2[nH]1", "Category": "Y"}
{"Structure Smiles String": "Cl.O=C(N[C@@H]1CC[C@@]2(O)[C@H]3Cc4ccc(O)c5c4[C@@]2(CCN3CC2CC2)[C@H]1O5)c1cccc2[nH]ccc12", "Category": "N"}
{"Structure Smiles String": "Cl.O=C(N[C@@H]1CC[C@@]2(O)[C@H]3Cc4ccc(O)c5c4[C@@]2(CCN3CC2CC2)[C@H]1O5)c1ccc2[nH]ccc2c1", "Category": "N"}
